Data provenance is patent US10106542B2.

Molecular target: human mGlu2 receptor (Homo sapiens)
Construct: expressed in transfected cells; host or cells: CHO cells (membrane preparation)
Sequence (Q14416 19-872): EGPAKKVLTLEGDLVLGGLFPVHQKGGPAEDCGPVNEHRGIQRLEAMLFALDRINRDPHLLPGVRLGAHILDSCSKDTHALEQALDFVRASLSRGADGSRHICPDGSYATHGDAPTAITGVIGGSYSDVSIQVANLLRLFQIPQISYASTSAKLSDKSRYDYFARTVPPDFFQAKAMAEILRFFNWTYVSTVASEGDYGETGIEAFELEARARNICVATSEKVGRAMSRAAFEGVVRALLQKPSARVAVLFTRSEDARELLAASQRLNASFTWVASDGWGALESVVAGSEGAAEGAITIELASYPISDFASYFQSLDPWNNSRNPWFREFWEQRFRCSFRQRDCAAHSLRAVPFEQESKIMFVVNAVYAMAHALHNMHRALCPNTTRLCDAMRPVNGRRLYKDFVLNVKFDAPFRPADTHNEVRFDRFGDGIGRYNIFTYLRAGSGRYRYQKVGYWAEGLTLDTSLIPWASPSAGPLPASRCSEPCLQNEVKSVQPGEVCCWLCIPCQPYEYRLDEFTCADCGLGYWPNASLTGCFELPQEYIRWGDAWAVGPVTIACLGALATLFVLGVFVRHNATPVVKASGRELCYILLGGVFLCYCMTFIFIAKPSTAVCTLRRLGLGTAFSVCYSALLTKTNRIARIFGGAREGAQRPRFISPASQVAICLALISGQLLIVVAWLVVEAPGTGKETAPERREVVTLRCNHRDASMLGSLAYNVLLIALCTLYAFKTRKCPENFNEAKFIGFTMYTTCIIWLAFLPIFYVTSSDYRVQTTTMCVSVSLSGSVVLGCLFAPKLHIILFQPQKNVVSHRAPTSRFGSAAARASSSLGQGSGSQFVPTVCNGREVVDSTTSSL
Assay: [35S]GTPγS binding assay (mGluR2 negative allosteric modulation)
Format: biochemical
Settings: membranes from CHO cells transfected with human mGlu2 receptor; glutamate 60 μM; pIC50 = −log IC50 (M); read-out: GTPγS - hmGluR2 anGT pIC50 (converted)
For each entry below, report its IC50 value.
Express the result in M but write the number alone.

*Q* Which IC50 is listed for COc1ccc(N2C[C@H](C)n3ncc(-c4ccnc(C)c4)c3C2=O)cc1OC [compound 41] ?
*A* 3.55e-06

*Q* Param item = Cc1cc(-c2cnn3c2C(=O)N(c2cc(Cl)c(Cl)cn2)C[C@@H]3C)ccn1 [compound 203] ; retrieve measured IC50.
*A* 6.76e-09

*Q* Field request: IC50 | item: Cc1cc(-c2cnn3c2C(=O)N(c2cccc(OC(C)C)c2)C[C@@H]3C)ccn1 [compound 79]
*A* 5.13e-07

*Q* Field request: IC50 | item: Cc1cc(-c2cnn3c2C(=O)N(c2ccc(C(F)(F)F)c(C#N)c2)C[C@@H]3C)cc(C)n1 [compound 59]
*A* 3.55e-08
